# Species: Rattus norvegicus
# Method Notes: DrugMatrix - Regimen: Daily Repeat
# Type: toxicity, organism-based, Sprague-Dawley
# Parameters: regimen Daily Repeat, gender Male, age 6-8 weeks
# Measurement Setup: in vivo, iv, 0 mg/kg, 120 h, tissue Blood, dose level Control, time 5 day, vehicle 100 % SALINE

{"Molecule": "CN(N=O)C(=O)N[C@@H](C=O)[C@@H](O)[C@H](O)[C@H](O)CO [STREPTOZOCIN]", "EOSINOPHIL, %": 1}
{"Molecule": "CC1(C)S[C@@H]2[C@H](NC(=O)[C@H](NC(=O)N3CCNC3=O)c3ccccc3)C(=O)N2[C@H]1C(=O)O [AZLOCILLIN]", "EOSINOPHIL, %": 0.33}
{"Molecule": "NCC[C@H](O)C(=O)N[C@@H]1C[C@H](N)[C@@H](O[C@H]2O[C@H](CN)[C@@H](O)[C@H](O)[C@H]2O)[C@H](O)[C@H]1O[C@H]1O[C@H](CO)[C@@H](O)[C@H](N)[C@H]1O [AMIKACIN]", "EOSINOPHIL, %": 0}
{"Molecule": "CC[C@@]1(O)C(=O)OCc2c1cc1n(c2=O)Cc2cc3ccccc3nc2-1 [CAMPTOTHECIN]", "EOSINOPHIL, %": 0.17}
